test system: Plasmodium falciparum Sir2 (PF13_0152, Sir2A); assay: pfSir2 binders on small-molecule microarrays, primary screen, biochemical, small-molecule microarray, 635 nm fluorescence (AID 1098); settings: small-molecule microarray binding, fluorescence 635 nm; higher = more signal;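 also: score merges spot fluorescence intensity with its signal-to-noise ratio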
Recorded measurements of composite z-score, one per entry
Kindly provide the number alone.

compound="COc1cccc([C@H]2Oc3ccc(OC)cc3C(=NOC(C)CN3CCCc4nc(C)c(C)cc43)[C@@H]2O)c1 (stereo not given in full)" value_kind="composite z-score" test_value=-0.403
compound=COc1ccc(O[C@H]2C=C[C@@H](c3ccccc3)O[C@@H]2COC(=O)N2CCCCC2)cc1 value_kind="composite z-score" test_value=-0.0945
compound="COc1ccc(-c2ccc3c(n2)CCCN3CC(O)CN2CCCc3nc(C)c(C)cc32)cc1 (stereo not given)" value_kind="composite z-score" test_value=0.879

stdin: Can you look up the measured composite z-score of CC1CC/C=C\[C@H]2OC34C=CCN(C(C)C)C(=O)[C@H]3N(CCCO)C(=O)[C@@H]4C2C(=O)O1 (stereo not given in full) for me?
stdout: 1.29

stdin: Entry `CC(C)OC(=O)C=C1C[C@@H](c2ccc(C#N)cc2)O[C@@H](c2ccc(C#N)cc2)O1` please
stdout: 1.07

stdin: Now try `COCCCNC(=O)[C@]1(Cc2ccccc2)N=C(c2ccc(OCCCO)cc2)O[C@@H]1c1ccccc1` .
stdout: 1.73

stdin: Similarly, `CO[C@@H]1COC(=O)CCC[C@@H](C)[C@H](OC)COC(=O)CCC[C@H]1C` ?
stdout: 0.691
